These data points were gathered from patent US10421765B2.

# target_entity: ATR/ATRIP complex (Homo sapiens (Human), UniProt Q13535)
# Sequence (Q13535 whole entry): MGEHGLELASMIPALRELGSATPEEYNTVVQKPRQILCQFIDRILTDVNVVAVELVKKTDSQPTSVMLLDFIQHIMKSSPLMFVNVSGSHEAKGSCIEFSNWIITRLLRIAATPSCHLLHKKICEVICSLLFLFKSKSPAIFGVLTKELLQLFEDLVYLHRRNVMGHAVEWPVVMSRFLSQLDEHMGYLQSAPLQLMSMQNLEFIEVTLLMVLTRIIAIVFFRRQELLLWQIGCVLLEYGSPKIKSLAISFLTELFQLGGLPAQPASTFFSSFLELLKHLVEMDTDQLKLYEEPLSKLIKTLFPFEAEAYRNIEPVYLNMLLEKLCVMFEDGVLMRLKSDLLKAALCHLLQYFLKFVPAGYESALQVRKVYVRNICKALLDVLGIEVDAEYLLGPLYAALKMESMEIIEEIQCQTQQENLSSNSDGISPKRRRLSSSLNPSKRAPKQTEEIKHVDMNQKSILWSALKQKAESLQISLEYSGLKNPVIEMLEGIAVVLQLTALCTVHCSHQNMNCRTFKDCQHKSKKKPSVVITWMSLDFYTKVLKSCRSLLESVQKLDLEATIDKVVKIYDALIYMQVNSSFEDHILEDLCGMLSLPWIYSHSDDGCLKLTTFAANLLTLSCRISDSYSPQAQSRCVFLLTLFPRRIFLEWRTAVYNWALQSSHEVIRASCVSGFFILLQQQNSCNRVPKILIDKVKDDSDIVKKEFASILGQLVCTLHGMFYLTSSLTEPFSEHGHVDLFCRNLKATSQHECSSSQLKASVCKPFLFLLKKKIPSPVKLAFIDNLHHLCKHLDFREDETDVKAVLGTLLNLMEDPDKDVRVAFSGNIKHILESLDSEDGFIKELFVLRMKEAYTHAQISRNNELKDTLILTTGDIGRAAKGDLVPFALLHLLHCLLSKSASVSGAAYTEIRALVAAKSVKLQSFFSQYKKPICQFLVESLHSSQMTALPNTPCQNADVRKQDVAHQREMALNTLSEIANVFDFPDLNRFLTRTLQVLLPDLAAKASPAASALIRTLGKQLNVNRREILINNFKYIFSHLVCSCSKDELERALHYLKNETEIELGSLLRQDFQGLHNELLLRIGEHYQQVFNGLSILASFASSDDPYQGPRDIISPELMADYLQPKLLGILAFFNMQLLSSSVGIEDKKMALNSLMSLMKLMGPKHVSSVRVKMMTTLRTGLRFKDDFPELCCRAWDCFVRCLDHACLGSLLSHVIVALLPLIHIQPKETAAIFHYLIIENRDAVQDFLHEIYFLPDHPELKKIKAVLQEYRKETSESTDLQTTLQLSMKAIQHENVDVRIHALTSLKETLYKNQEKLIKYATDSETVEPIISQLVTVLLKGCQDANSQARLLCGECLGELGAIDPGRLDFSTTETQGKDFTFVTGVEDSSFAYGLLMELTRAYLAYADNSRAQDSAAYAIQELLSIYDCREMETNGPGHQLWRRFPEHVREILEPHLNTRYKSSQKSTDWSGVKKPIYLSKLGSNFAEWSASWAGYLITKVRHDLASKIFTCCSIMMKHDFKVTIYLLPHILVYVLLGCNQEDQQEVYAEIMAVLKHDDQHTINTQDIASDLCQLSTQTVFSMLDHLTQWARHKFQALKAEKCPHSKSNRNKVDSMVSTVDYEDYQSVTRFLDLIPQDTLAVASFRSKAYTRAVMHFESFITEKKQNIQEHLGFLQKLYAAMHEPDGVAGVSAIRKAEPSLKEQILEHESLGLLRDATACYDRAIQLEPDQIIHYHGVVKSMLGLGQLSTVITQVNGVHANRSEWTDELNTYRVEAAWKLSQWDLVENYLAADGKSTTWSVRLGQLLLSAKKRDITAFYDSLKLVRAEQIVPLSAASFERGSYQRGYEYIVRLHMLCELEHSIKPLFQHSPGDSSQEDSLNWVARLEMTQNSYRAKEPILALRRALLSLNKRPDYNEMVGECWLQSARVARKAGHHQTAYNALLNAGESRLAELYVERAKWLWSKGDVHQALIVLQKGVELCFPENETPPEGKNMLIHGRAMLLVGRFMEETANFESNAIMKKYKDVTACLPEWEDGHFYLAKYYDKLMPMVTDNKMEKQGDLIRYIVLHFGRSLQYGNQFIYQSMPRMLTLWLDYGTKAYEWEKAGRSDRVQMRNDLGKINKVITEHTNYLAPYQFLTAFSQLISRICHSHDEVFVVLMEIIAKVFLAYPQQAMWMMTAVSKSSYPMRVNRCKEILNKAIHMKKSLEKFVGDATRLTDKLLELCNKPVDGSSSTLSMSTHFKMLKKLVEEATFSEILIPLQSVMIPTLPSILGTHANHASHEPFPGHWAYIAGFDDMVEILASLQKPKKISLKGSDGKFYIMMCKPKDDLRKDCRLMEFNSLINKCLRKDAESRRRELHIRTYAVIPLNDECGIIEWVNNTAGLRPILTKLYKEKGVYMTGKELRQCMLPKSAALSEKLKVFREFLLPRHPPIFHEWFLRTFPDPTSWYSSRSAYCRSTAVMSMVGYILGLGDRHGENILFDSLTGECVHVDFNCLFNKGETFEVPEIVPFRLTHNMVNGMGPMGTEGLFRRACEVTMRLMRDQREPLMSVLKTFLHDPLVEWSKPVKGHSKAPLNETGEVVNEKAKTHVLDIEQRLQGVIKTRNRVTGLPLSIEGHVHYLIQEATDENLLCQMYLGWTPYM
# Sequence (Q8WXE1 whole entry partner): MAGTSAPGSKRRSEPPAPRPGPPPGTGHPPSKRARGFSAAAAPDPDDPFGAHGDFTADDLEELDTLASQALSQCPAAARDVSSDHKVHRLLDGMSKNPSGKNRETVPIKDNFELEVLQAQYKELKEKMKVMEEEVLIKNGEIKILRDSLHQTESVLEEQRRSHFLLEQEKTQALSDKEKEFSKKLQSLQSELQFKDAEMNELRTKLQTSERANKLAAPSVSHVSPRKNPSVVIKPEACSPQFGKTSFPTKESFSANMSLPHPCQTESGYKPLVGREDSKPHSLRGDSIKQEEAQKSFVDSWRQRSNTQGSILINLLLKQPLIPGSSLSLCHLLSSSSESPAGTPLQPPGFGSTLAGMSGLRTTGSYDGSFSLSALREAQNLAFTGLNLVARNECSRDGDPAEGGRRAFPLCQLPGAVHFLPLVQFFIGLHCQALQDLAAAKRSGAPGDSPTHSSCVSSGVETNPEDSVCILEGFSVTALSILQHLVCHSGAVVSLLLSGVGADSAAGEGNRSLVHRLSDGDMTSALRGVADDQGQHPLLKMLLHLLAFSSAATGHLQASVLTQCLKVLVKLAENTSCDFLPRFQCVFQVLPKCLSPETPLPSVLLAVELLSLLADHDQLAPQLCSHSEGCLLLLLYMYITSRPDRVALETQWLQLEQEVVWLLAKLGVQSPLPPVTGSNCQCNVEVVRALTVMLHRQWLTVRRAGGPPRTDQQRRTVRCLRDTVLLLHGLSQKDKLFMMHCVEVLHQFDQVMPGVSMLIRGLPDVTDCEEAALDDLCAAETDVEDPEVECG
# assay_remarks: ATR/ATRIP enzymatic assay (Caliper-based)
# Format: biochemical
# experimental_context: FAM-labeled RAD17 peptide, ATP; read-out: ATR/ATRIP Enzyme IC50
pIC50: −log10 of the molar value.
# pIC50 per record follows
readout_name: pIC50

{"compound": "C[C@@H]1Cc2ncnc(N3CC(C#N)C3)c2CN1c1cc(Cl)nc2[nH]ccc12 [Example 79]", "readout_name": "pIC50", "observed_result": 6.99}
{"compound": "C[C@@H]1Cc2ncnc(C3CCN(S(C)(=O)=O)CC3)c2CN1c1nccc2[nH]ccc12 [Example 59]", "readout_name": "pIC50", "observed_result": 5.58}
{"compound": "C[C@@H]1Cc2ncnc(C3CN(S(C)(=O)=O)C3)c2CN1c1cc(Cl)nc2[nH]ccc12 [Example 47]", "readout_name": "pIC50", "observed_result": 6.54}
{"compound": "C[C@@H]1Cc2ncnc(N3CC(NS(C)(=O)=O)C3)c2CN1c1ccnc2[nH]ccc12 [Example 84]", "readout_name": "pIC50", "observed_result": 6.14}
{"compound": "C[C@@H]1Cc2ncnc([C@H]3CCN(S(C)(=O)=O)C3)c2CN1c1ccnc2[nH]ccc12 [Example 57b]", "readout_name": "pIC50", "observed_result": 5.83}
{"compound": "C[C@@H]1Cc2ncnc(N3C[C@H]4CC[C@@H](C3)C4NS(C)(=O)=O)c2CN1c1cc(Cl)nc2[nH]ccc12 (stereo partly shown) [Example 13]", "readout_name": "pIC50", "observed_result": 6.94}
{"compound": "C[C@@H]1Cc2ncnc(C3C[C@H]4CC[C@@H](C3)N4S(C)(=O)=O)c2CN1c1cc(Cl)nc2[nH]ccc12 (single isomer, unassigned) [Example 11b]", "readout_name": "pIC50", "observed_result": 6.48}
